tested target: 6HB formation between N36 and C34-biotin (Human immunodeficiency virus type 1 group M subtype B, UniProt P04578)
outcome measure: IC50 (nM)

• O=C(O)c1cc(-c2ccc(/C=C3\SC(=S)N(CCc4ccc(O)cc4)C3=O)o2)ccc1Cl = 1360

----------
Tested on: HIV-1 Bal
experiment notes: Inactivation of cell-free HIV-1 virions (PEG-6000 precipitation, p24 ELISA)
Assay type: cell-based
assay context: Human immunodeficiency virus 1; Bal virus inactivation; alone; read-out: EC50 of FD017, Alone
outcome measure: EC50

• O=C(O)c1cc(-c2ccc(/C=C3\SC(=S)N(CCc4ccc(O)cc4)C3=O)o2)ccc1Cl [FD017] = > 5 µM

----------
tested target: 6HB formation between N36 and C34 (Human immunodeficiency virus type 1 group M subtype B, UniProt P04578)
pIC50: −log10 of the molar value.
outcome measure: pIC50

- CC1(C)CC(NC(=O)C(=O)Nc2ccc(Cl)c(F)c2)CC(C)(C)N1C(=O)COc1ccc(CCN2C(=O)/C(=C/c3ccc(-c4ccc(Cl)c(C(=O)O)c4)o3)SC2=S)cc1: 3.70 to 4.00

----------
tested target: HIV-1 IIIB gp120 (Human immunodeficiency virus type 1 group M subtype B, UniProt P04578)
experiment notes: ELISA inhibition of gp120 CD4bs-targeting mAbs binding to gp120
Design: polystyrene plates were coated with 50 µL of HIV-1 IIIB gp120
assay context: ELISA, mAb HJ16; read-out: IC50, inhibition of HJ16 binding to gp120
Experimental: Flow cytometry was used to detect compounds that competed with gp120 CD4bs-targeting mAbs for binding to gp120. […] After three washes, the cells were analyzed with flow cytometry. […] After adding 3,3′,5,5′-tetramethylbenzidine chromogen substrate and sulfuric acid, the absorbance at 450 nm (A450) was recorded using a Microplate Reader (Tecan, Männedorf, Switzerland).
outcome measure: IC50

• CC1(C)CC(NC(=O)C(=O)Nc2ccc(Cl)c(F)c2)CC(C)(C)N1C(=O)COc1ccc(CCN2C(=O)/C(=C/c3ccc(-c4ccc(Cl)c(C(=O)O)c4)o3)SC2=S)cc1 = 770 nM

----------
Tested on: 92/TH/009 (A/E, R5)
experiment notes: Inactivation of cell-free HIV-1 clinical virus
Assay type: cell-based
assay context: Human immunodeficiency virus 1, inactivation of cell-free virions, means ± SD
outcome measure: EC50 (nM)

* CC1(C)CC(NC(=O)C(=O)Nc2ccc(Cl)c(F)c2)CC(C)(C)N1C(=O)COc1ccc(CCN2C(=O)/C(=C/c3ccc(-c4ccc(Cl)c(C(=O)O)c4)o3)SC2=S)cc1 | 260

----------
System: KNH1135 (A, R5)
experiment notes: microbe, parasite or virus in culture
Type: cell-based, HIV-1
assay context: Human immunodeficiency virus 1; inactivation of cell-free virions, clinical virus KNH1135 (A, R5); means ± SD
outcome measure: EC50 (nM)

• CC1(C)CC(NC(=O)C(=O)Nc2ccc(Cl)c(F)c2)CC(C)(C)N1C(=O)COc1ccc(CCN2C(=O)/C(=C/c3ccc(-c4ccc(Cl)c(C(=O)O)c4)o3)SC2=S)cc1 [FD028] = 1230

----------
Test system: HIV-1 Bal (R5)
experiment notes: Inhibition of HIV-1 infection (p24 ELISA)
Format: cell-based
assay context: Human immunodeficiency virus 1; Bal; combination experiment, alone; read-out: IC50 of FD017, Alone
outcome measure: IC50 (nM)

* O=C(O)c1cc(-c2ccc(/C=C3\SC(=S)N(CCc4ccc(O)cc4)C3=O)o2)ccc1Cl | 1480

----------
System: 92/UG/001 (D, R5 and X4)
experiment notes: Inhibition of HIV-1 clinical virus infection
Format: cell-based
assay context: Human immunodeficiency virus 1; HIV-1 clinical virus 92/UG/001 (D, R5 and X4); means ± SD
outcome measure: IC50 (nM)

- CC1(C)CC(NC(=O)C(=O)Nc2ccc(Cl)c(F)c2)CC(C)(C)N1C(=O)COc1ccc(CCN2C(=O)/C(=C/c3ccc(-c4ccc(Cl)c(C(=O)O)c4)o3)SC2=S)cc1: 450

----------
Tested on: HIV-1 IIIB
experiment notes: Inactivation of cell-free HIV-1 virions (PEG-6000 precipitation, p24 ELISA)
Format: cell-based
assay context: Human immunodeficiency virus 1; IIIB virus inactivation; in mixture with FD017; read-out: EC50 of FD016, In mixture
outcome measure: EC50 (nM)

• CC1(C)CC(NC(=O)C(=O)Nc2ccc(Cl)c(F)c2)CC(C)(C)N1 = 2510

----------
Tested on: T2635-resistant virus K90E
Assay type: cell-based, HIV-1
assay context: means ± SD
outcome measure: IC50

* CC1(C)CC(NC(=O)C(=O)Nc2ccc(Cl)c(F)c2)CC(C)(C)N1C(=O)COc1ccc(CCN2C(=O)/C(=C/c3ccc(-c4ccc(Cl)c(C(=O)O)c4)o3)SC2=S)cc1 [FD028] | 790 nM

----------
tested target: HIV-1 IIIB gp120 (Human immunodeficiency virus type 1 group M subtype B, UniProt P04578)
experiment notes: ELISA inhibition of gp120 CD4bs-targeting mAbs binding to gp120
Design: polystyrene plates were coated with 50 µL of HIV-1 IIIB gp120
assay context: IC50, inhibition of 3BNC117 binding to gp120, ELISA, mAb 3BNC117
outcome measure: IC50 (nM)

- CC1(C)CC(NC(=O)C(=O)Nc2ccc(Cl)c(F)c2)CC(C)(C)N1C(=O)COc1ccc(CCN2C(=O)/C(=C/c3ccc(-c4ccc(Cl)c(C(=O)O)c4)o3)SC2=S)cc1: 520

----------
Tested on: T2635-resistant virus Q79E N126K
Format: cell-based, HIV-1
assay context: means ± SD
outcome measure: IC50 (nM)

* CC1(C)CC(NC(=O)C(=O)Nc2ccc(Cl)c(F)c2)CC(C)(C)N1C(=O)COc1ccc(CCN2C(=O)/C(=C/c3ccc(-c4ccc(Cl)c(C(=O)O)c4)o3)SC2=S)cc1 | 200

----------
tested target: UniProt:P04578
experiment notes: ELISA inhibition of gp120 CD4bs-targeting mAbs binding to gp120
Design: polystyrene plates were coated with 50 µL of HIV-1 IIIB gp120
assay context: ELISA, mAb N6; read-out: IC50, inhibition of N6 binding to gp120
pIC50: −log10 of the molar value.
outcome measure: pIC50

- CC1(C)CC(NC(=O)C(=O)Nc2ccc(Cl)c(F)c2)CC(C)(C)N1C(=O)COc1ccc(CCN2C(=O)/C(=C/c3ccc(-c4ccc(Cl)c(C(=O)O)c4)o3)SC2=S)cc1 [FD028]: 5.91

----------
Tested on: SM145/GS 016 (C, R5)
experiment notes: Inactivation of cell-free HIV-1 clinical virus
Assay type: cell-based
assay context: Human immunodeficiency virus 1, inactivation of cell-free virions, means ± SD
pEC50: −log10 of the molar value.
outcome measure: pEC50

• CC1(C)CC(NC(=O)C(=O)Nc2ccc(Cl)c(F)c2)CC(C)(C)N1C(=O)COc1ccc(CCN2C(=O)/C(=C/c3ccc(-c4ccc(Cl)c(C(=O)O)c4)o3)SC2=S)cc1 = 6.02

----------
Tested on: T2635-resistant virus K90E
Format: cell-based, HIV-1
assay context: inactivation of cell-free virions, means ± SD
outcome measure: EC50 (nM)

- CC1(C)CC(NC(=O)C(=O)Nc2ccc(Cl)c(F)c2)CC(C)(C)N1C(=O)COc1ccc(CCN2C(=O)/C(=C/c3ccc(-c4ccc(Cl)c(C(=O)O)c4)o3)SC2=S)cc1: 550

----------
tested target: HIV-1 IIIB gp120 (Human immunodeficiency virus type 1 group M subtype B, UniProt P04578)
experiment notes: ELISA inhibition of gp120 CD4bs-targeting mAbs binding to gp120
Design: polystyrene plates were coated with 50 µL of HIV-1 IIIB gp120
assay context: ELISA, mAb VRC01; read-out: IC50, inhibition of VRC01 binding to gp120
pIC50: −log10 of the molar value.
outcome measure: pIC50

* CC1(C)CC(NC(=O)C(=O)Nc2ccc(Cl)c(F)c2)CC(C)(C)N1C(=O)COc1ccc(CCN2C(=O)/C(=C/c3ccc(-c4ccc(Cl)c(C(=O)O)c4)o3)SC2=S)cc1 | 6.38

----------
Test system: 96USSN20 (A, R5 and X4)
experiment notes: Inhibition of HIV-1 clinical virus infection
Format: cell-based
assay context: Human immunodeficiency virus 1; HIV-1 clinical virus 96USSN20 (A, R5 and X4); means ± SD
outcome measure: IC50

• CC1(C)CC(NC(=O)C(=O)Nc2ccc(Cl)c(F)c2)CC(C)(C)N1C(=O)COc1ccc(CCN2C(=O)/C(=C/c3ccc(-c4ccc(Cl)c(C(=O)O)c4)o3)SC2=S)cc1 = 200 nM
